- test_summary: self-splicing fitness, log relative to wild type (ln ratio); higher = more splicing; Tetrahymena group I intron in knt gene, E. coli kanamycin selection, DiMSum; sequences stand for … in CUCUCU…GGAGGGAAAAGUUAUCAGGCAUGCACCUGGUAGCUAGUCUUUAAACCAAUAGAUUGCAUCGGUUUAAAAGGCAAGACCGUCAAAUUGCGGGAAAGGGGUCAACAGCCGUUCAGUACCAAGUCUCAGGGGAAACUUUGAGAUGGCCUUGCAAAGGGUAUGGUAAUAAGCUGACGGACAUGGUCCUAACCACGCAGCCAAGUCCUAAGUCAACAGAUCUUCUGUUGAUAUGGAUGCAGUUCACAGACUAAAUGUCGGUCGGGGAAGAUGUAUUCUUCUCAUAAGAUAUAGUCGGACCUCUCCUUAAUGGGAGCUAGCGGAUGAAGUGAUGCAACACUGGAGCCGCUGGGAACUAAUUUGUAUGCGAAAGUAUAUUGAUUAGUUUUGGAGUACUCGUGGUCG;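 also: selection with 25 µg/mL kanamycin versus none on LB agar overnight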
- measurement_setup: 37 °C
Criterion: self-splicing fitness (ln) meeting or surpassing -2. Met: T. Not met: F.

>>> class_label("UUCGAGCAAUAUUACGAAGA")
"T"
>>> class_label("UUUAAGCAAUAUUACGUCAG")
"T"
>>> class_label("ACGUAGCAAUAUUACGGCGC")
"T"

As a next step, examine the sequence that follows.
Confirm if self-splicing fitness (ln) reported for the sequence `CGUAAGCAAUAUUACGUUAG` is -2 or above. T

----------
- test_summary: self-splicing fitness, log relative to wild type (ln ratio); higher = more splicing; Tetrahymena group I intron in knt gene, E. coli kanamycin selection, DiMSum; sequences stand for … in CUCUCU…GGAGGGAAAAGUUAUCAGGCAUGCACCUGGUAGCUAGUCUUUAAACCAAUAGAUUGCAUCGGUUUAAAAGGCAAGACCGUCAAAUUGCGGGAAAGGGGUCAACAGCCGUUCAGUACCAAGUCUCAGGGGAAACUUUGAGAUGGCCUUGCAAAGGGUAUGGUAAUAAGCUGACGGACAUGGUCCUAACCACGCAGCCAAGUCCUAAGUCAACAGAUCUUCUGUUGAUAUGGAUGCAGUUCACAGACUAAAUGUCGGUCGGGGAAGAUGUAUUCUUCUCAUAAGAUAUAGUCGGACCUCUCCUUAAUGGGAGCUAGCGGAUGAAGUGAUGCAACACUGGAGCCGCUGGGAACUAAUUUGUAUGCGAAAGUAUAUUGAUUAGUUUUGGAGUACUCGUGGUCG
- measurement_setup: 37 °C
experimental_endpoint: self-splicing fitness (ln)
Answer as a number with no unit attached.

As a guide, the following entries are already answered.
>>> result("AGGUAGCAAUAUUACGAUAG")
-2.72
>>> result("UGAAAGCAAUAUUACGGCCU")
0.493
>>> result("GAGCAGCAAUAUUACGGCAC")
-0.126

Fill in self-splicing fitness (ln) for record `UCUGAGCAAUAUUACGGUGG` -0.277

Fill in self-splicing fitness (ln) for record `ACCUAGCAAUAUUACGAGAA` -2.29

Fill in self-splicing fitness (ln) for record `UCUAAGCAAUAUUACGUAAC` -2.94

Fill in self-splicing fitness (ln) for record `AUGAAGCAAUAUUACGAUGC` -0.813

Fill in self-splicing fitness (ln) for record `AGCCAGCAAUAUUACGGGCG` -0.918
